// provenance: paper PMC10397247

Listed here: items and their measured interaction score.
Target: T1, 4H568-bH
T1 chain: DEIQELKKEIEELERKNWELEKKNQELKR
Test: two-hybrid library CCNG1;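 further: natural log of median RNA to DNA barcode read ratio; higher means stronger binding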
Please give only the number in your answer, with no unit.

Some solved entries appear below for comparison.
binder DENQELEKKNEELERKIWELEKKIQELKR [4H1446-bH] , interaction score observed: -2.02

binder DKNQELEKEIEELKRKNWELEKKIQELER [4H3189-bH] , interaction score observed: -0.408

Continuing:
binder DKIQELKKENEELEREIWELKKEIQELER [4H2697-bH] , interaction score observed: -1.4

binder DKNQELKKKNEELERKIWELEKEIQELER [4H4001-bH] , interaction score observed: -0.215

binder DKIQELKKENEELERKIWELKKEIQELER [4H2729-bH] , interaction score observed: -0.0225

binder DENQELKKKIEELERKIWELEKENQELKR [4H1828-bH] , interaction score observed: -1.34

binder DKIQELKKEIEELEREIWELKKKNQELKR [4H2576-bH] , interaction score observed: 0.102
